# System: Candida albicans (ATCC 10231)
# Assay Summary: Anti-fungal Minimum Inhibitory Concentration (MIC) Method, microbroth dilution
# Assay type: cell-based
# Conditions Used: Table 1; RPMI-1640, 25° C., 48 hours, pH 4.5-adjusted stock
Documented MIC (%) C. albicans across a set of compounds

// solved cases for MIC (%) C. albicans follow
O=C(O)c1ccc(OC2CC(O)C(CO)O2)cc1 (stereo not shown)    >0.069%
O=C(O)c1ccc(OCCCCO)cc1 [Compound 6, 4-(4-hydroxybutoxy) benzoic acid]    >0.04%
O=C(O)c1ccc(OCC(O)CO)cc1 (stereo not shown) [Compound 2, 4-(2,3-dihydroxypropoxy) benzoic acid]    >0.181%
O=C(O)c1ccc(OC2OC(CO)C(O)C2O)cc1 (stereo not shown)    >1%
O=C(O)c1ccc(OCCO)cc1 [Compound 1, 4-(2-hydroxyethoxy) benzoic acid]    >0.165%

Q) Please list MIC (%) C. albicans recorded for the compound CC(O)COc1ccc(C(=O)O)cc1 (stereo not shown) [Compound 7, 4-(2-hydroxypropoxy) benzoic acid]
A) >0.079%

Q) Consider the compound O=C(O)c1ccc(O[C@@H]2O[C@H](CO)[C@H](O)[C@H](O)[C@H]2O)cc1 and give its recorded MIC (%) C. albicans.
A) >0.87%

###

# Test system: Staphylococcus aureus (ATCC 6538)
# Assay Summary: Anti-bacterial Minimum Inhibitory Concentration (MIC) Method, microbroth dilution
# Format: cell-based
# Conditions Used: Table 1; CAMHB, 37° C., 24 hours, pH 4.5-adjusted stock
Flag rule - MIC (%) S. Aureus less than 0.02% flags 1; the remaining entries get 0.

Worked examples follow.
O=C(O)c1ccc(OCC(O)CO)cc1 (stereo not shown) [Compound 2, 4-(2,3-dihydroxypropoxy) benzoic acid]    0
O=C(O)c1ccc(OCCCCO)cc1 [Compound 6, 4-(4-hydroxybutoxy) benzoic acid]    1

Q) Input O=C(O)c1ccc(O[C@@H]2O[C@H](CO)[C@H](O)[C@H](O)[C@H]2O)cc1 ; condition: MIC (%) S. Aureus strictly below 0.02%. Does it hold?
A) 0

Q) Please check: MIC (%) S. Aureus for O=C(O)c1ccc(OC2OC(CO)C(O)C2O)cc1 (stereo not shown) , strictly under 0.02% or not?
A) 0

Q) # strict comparison: is reported MIC (%) S. Aureus < 0.02%? input = O=C(O)c1ccc(OCCO)cc1 [Compound 1, 4-(2-hydroxyethoxy) benzoic acid]
A) 0

Q) Here's an entry: O=C(O)c1ccc(OC2CC(O)C(CO)O2)cc1 (stereo not shown) . Is its MIC (%) S. Aureus below 0.02%?
A) 1

###

# Assay Summary: Determination of Dissociation Constant (pKa) by Potentiometric Titration Method
# Type: physicochemical
# Conditions Used: pH 4.5, Table 3, 0.1 mg/ml, 22° C.
Endpoint: pKa

Q) Given O=C(OCCCO)c1ccccc1 [Compound 11, Benzoic acid 3-hydroxy-propyl ester] , respond with its pKa.
A) > 7

###

Solubility (wt %): recorded values
# Format: physicochemical
# Conditions Used: pH 4.5

Field: example entries. Status: answers known.
O=C(OCCO)c1ccccc1 [Compound 8, Benzoic acid 2-hydroxyethyl ester]    >1.0 wt %
O=C(O)c1ccc(OC2OC(CO)C(O)C2O)cc1 (stereo not drawn)    >1.00 wt %

// below: Solubility (wt %) requested for another compound
Q) Quickly give me recorded Solubility (wt %) for O=C(OCC(O)CO)c1ccccc1 (stereo not drawn) [Compound 9, Benzoic acid 2,3-dihydroxypropyl ester]
A) >1.0 wt %
